These measurements were taken from ChEMBL document CHEMBL2331397.

- protocol notes: Cytotoxicity against mouse P815B cells assessed as cell viability at 10 uM by MTT assay relative to control
- Type: cell-based
- assay context: read-out: Activity
property label: viability at 10 µM

compound=COc1ccc(-c2c[nH]c3c2C(=O)c2c(CCN)cn(S(=O)(=O)c4ccc(C)cc4)c2C3=O)cc1 value_reported=80%
compound="COc1ccc(C(O)CNC2=CC(=O)c3c(CCNC(=O)OC(C)(C)C)cn(S(=O)(=O)c4ccc(C)cc4)c3C2=O)cc1 (stereo not drawn)" value_reported="> 90%"
compound="COc1ccc(C(O)CNC2=CC(=O)c3c(ccn3S(=O)(=O)c3ccc(C)cc3)C2=O)cc1 (stereo not drawn)" value_reported="> 90%"
compound="COc1ccc(C(O)CNC2=CC(=O)c3ccn(S(=O)(=O)c4ccc(C)cc4)c3C2=O)cc1 (stereo not drawn)" value_reported="> 90%"
compound=COc1ccc(-c2c[nH]c3c2C2=NCCc4cn(S(=O)(=O)c5ccc(C)cc5)c(c42)C3=O)cc1 value_reported="> 90%"
compound="COc1ccc(C2CNC3=C2C(=O)c2c(CCN)cn(S(=O)(=O)c4ccc(C)cc4)c2C3=O)cc1 (stereo not drawn)" value_reported=83%
compound=O=C1c2[nH]cc3c2C(=NCC3)c2[nH]cc(-c3ccc(O)cc3)c21 value_reported="> 90%"
compound=O=C1c2[nH]ccc2C(=O)c2c(-c3ccc(O)cc3)c[nH]c21 value_reported="> 90%"

* * *

Catalogue of compounds with associated IC50
- tested on: Indoleamine 2,3-dioxygenase 1 (Homo sapiens, UniProt P14902)
- Sequence (P14902 whole entry): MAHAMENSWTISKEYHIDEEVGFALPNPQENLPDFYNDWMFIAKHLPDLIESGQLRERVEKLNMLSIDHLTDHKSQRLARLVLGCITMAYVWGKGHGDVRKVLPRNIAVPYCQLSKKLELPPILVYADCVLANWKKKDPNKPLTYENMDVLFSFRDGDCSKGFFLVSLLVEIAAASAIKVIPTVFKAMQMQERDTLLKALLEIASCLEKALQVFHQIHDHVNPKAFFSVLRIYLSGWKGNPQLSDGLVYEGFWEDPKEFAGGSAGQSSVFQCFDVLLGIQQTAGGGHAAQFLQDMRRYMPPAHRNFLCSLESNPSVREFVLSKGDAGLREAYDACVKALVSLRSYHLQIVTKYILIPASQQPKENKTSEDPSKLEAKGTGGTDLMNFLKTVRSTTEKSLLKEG
- protocol notes: Inhibition of human recombinant IDO1 using L-Trp as substrate assessed as kynurenine level after 30 mins
property label: IC50 (µM)

compound="COc1ccc(C2CNC3=C2C(=O)c2c(ccn2S(=O)(=O)c2ccc(C)cc2)C3=O)cc1 (stereo not given)" unit_descriptor=µM value_reported=5.6
compound=COc1ccc(-c2c[nH]c3c2C(=O)c2[nH]cc4c2C3=NCC4)cc1 unit_descriptor=µM value_reported=7.1
compound="COc1ccc(C(O)CNC2=CC(=O)c3c(CCNC(=O)OC(C)(C)C)cn(S(=O)(=O)c4ccc(C)cc4)c3C2=O)cc1 (stereo not given)" unit_descriptor=µM value_reported=26.9
compound="COc1ccc(C2CNC3=C2C(=O)c2c(c(CCN)cn2S(=O)(=O)c2ccc(C)cc2)C3=O)cc1 (stereo not given)" unit_descriptor=µM value_reported=5.6
compound=COc1ccc(-c2c[nH]c3c2C2=NCCc4c[nH]c(c42)C3=O)cc1 unit_descriptor=µM value_reported=0.9
compound=COc1ccc(-c2c[nH]c3c2C(=O)c2cc[nH]c2C3=O)cc1 unit_descriptor=µM value_reported=12.6
compound=COc1ccc(-c2c[nH]c3c2C2=NCCc4cn(S(=O)(=O)c5ccc(C)cc5)c(c42)C3=O)cc1 unit_descriptor=µM value_reported=2.2
compound="COc1ccc(C(O)CNC2=CC(=O)c3c(c(CCNC(=O)OC(C)(C)C)cn3S(=O)(=O)c3ccc(C)cc3)C2=O)cc1 (stereo not given)" unit_descriptor=µM value_reported=10.1
compound=COc1ccc(-c2c[nH]c3c2C(=O)c2c(c(CCN)cn2S(=O)(=O)c2ccc(C)cc2)C3=O)cc1 unit_descriptor=µM value_reported=11.9
compound=O=C1c2[nH]cc3c2C(=NCC3)c2[nH]cc(-c3ccc(O)cc3)c21 unit_descriptor=µM value_reported=7
